- Tested on: MDA-N
- measurementNotes: NCI tumour cell line growth inhibition, 48 h
measurementType: TGI

// TGI value for CCC(=O)NC(Nc1ccccc1F)(C(F)(F)F)C(F)(F)F : > 100 µM

// TGI value for CCCCCC[n+]1noc(N)c1-c1ccc(-c2c(N)on[n+]2CCCCCC)cc1 : 3.48 mg/L

// TGI value for COc1ccc(/C=C2\C(=O)NC(=O)c3ccccc32)cc1OC : > 66.8 µM

// TGI value for O=[N+]([O-])/C(C(Cl)=C(Cl)Cl)=C(\Nc1cccc2ccccc12)n1nnc2ccccc21 : > 100 µM

// TGI value for S=C1Nc2cnc3ccccc3c2SC1c1ccccc1 (stereo unspecified) : > 100 µM

// TGI value for N#Cc1c(=N)cc2c3ccccc3oc3c(C#N)c(N)[nH]c1c32 : > 100 µM

====

Reported TGI values follow for various compounds
- Tested on: SF-539 CNS
- measurementNotes: NCI tumour cell line growth inhibition, 48 h

{"compound": "CCOc1ccc(C2Oc3c(cccc3OC)C=C2[N+](=O)[O-])cc1OCC (configuration not stated)", "TGI": "5.24 µM"}

// TGI value for COC(=O)[C@]1(C)CCC[C@]2(C)C3CC4OOC3(C=C4C(C)(C)O)CCC21 (some centres not stated) : > 100 µM

// TGI value for C/C(=N\Nc1nc2ccccc2o1)c1ccc2ccccc2n1 : > 100 µM

// TGI value for CCCCNC(=O)OCCN=C1c2ccccc2C(Br)C(Br)c2ccccc21 (configuration not stated) : > 100 µM

// TGI value for COc1cc(Br)c(CC2C3=C(CCN2C(=O)C2CCC2)CC2(CC3)OCCO2)cc1O (configuration not stated) : > 100 µM

// TGI value for O=S(=O)(Nc1cc(F)cc(F)c1)c1ccc(-c2cnc(C3CC3)o2)cc1 : 14.6 µM

// TGI value for O=C(OCc1ccccc1)c1nc2ccccc2n1S(=O)(=O)c1ccccc1 : > 100 µM

// TGI value for CC1(CO)OC(n2cnc3c(N)ncnc32)C(O)C1O (configuration not stated) : > 100 µM

// TGI value for C[C@]12CCC(=O)C(O)=C1CCC2=O : > 100 µM

// TGI value for CCCCCCCC/C=C/CCCCCCCC(=O)N(O)C1CC(n2cc(C)c(=O)[nH]c2=O)OC1CO (configuration not stated) : 24.2 µM

// TGI value for CN(C)N=Nc1cn[nH]c1C(N)=O : > 100 µM

// TGI value for Cc1c(C)n(COCCO)c2ncnc(N)c12 : > 100 µM

// TGI value for Oc1ccc2c(c1)OCC1(O)Cc3cc(O)c(O)cc3C21 (configuration not stated) : 36.8 µM

// TGI value for COc1ccc(/C=C/C(=O)c2sc(Nc3ccc([N+](=O)[O-])cc3)nc2C)cc1 : > 100 µM

// TGI value for C#CCNCCCN1C(=O)c2ccc3c4c(ccc(c24)C1=O)C(=O)N(CCCNCC#C)C3=O : 1.75 µM

// TGI value for COc1ccc2c(c1OC)C(=O)OC2C1c2c(c(N)c3c(c2OC)OCO3)CCN1C (configuration not stated) : 5.53 µM

// TGI value for O=C(Nc1cccc([N+](=O)[O-])c1)/C(=N\NC(=O)c1ccncc1)c1nc2ccc([N+](=O)[O-])cc2[nH]c1=O : > 100 µM

// TGI value for Cc1cc(O)c(C=NC(=S)c2ccncc2)c(=O)o1 : > 100 µM

// TGI value for Cc1cccc(-n2cnc3cc(C(=O)N4CCCCC4)ccc32)c1 : > 100 µM

// TGI value for CC1C2CC(CC23OCC(CCl)O3)C1(C)C (configuration not stated) : > 100 µM

// TGI value for COc1ccc2c(c1OC)OC[C@@H](C1=CC(=O)C=C(O)C1=O)C2 : 26.8 µM

// TGI value for CCNC(=O)N1CCc2c(Cl)c3c(c(OC)c2[C@@H]1[C@H]1OCc2c1ccc(OC)c2OC)OCCO3 : 6.06 µM
